experiment: Quantitative highthroughput screen to assess conditional lethalithy of SEM cells grown in RPMI1640 with unreated serum (RPMI+s) (AID 1963883); settings: SEM B-ALL cells, CellTiter-Glo viability, 48 h; series mostly up to 45.8 µM; also: nearly all actives have a fitted effect of over 35% in size; also: potency is read from the fitted curve at half-maximal effect
Inconclusive results are not listed. The source made the active and inactive calls. Calls follow the shape of the dose curve; as a rule, active = well fitted cell-killing curve with a large enough effect; inconclusive = small, poorly fitted or top-dose-only effect, or effect the other way; inactive = no such curve, though single readings can be large or run the other way.
MEASUREMENT NAME: Potency

# count of solved cases: 5
MOLECULE: C=CCn1c(=O)c2cnc(Nc3ccc(N4CCN(C)CC4)cc3)nc2n1-c1cccc(C(C)(C)O)n1
Potency: 418 nM (active)

MOLECULE: NC(=O)c1cnccn1
Potency: inactive

MOLECULE: OC(CCN1CCCCC1)(c1ccccc1)C1CC2C=CC1C2 (configuration not stated)
Potency: inactive

MOLECULE: COc1nc(C)nc(Cl)c1NC1=NCCN1
Potency: inactive

MOLECULE: Nc1[nH]nc2nnc(-c3c(-c4ccccc4)nn4ccccc34)cc12
Potency: 23500 nM (active)

Find the recorded Potency belonging to `O=C(O)CCCCCC(=O)NN=C1CCCC1` and report it. inactive

Also, `Cc1cnc(NC(=O)Nc2cc(Br)c(C)cc2OC[C@@H]2CNCCO2)cn1` please. 935 nM (active)
